Biological target: T1, human Sdc2 (human, UniProt P34741 19-144, limits assumed)
T1 construct: Antigen of the Octet tandem binning, loaded on biosensors at 100 nM; also called huSdc2; hSdc2
T1 sequence (P34741 19-144 limits assumed): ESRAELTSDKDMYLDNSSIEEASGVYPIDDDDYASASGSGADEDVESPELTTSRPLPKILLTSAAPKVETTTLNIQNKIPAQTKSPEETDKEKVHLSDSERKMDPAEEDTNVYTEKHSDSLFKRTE
Assay: Octet tandem binning; saturating Ab m3 19844-R3-P1-C02 (row boxed, self-self >0.09)
metric: raw competing-Ab binding signal

**Query** Dear colleague, I am looking for the recorded raw competing-Ab binding signal of the following binder: 8-G17-A (antibody, V domains shown, PentaMice hybridoma clone, made recombinantly in CHO cells) VH: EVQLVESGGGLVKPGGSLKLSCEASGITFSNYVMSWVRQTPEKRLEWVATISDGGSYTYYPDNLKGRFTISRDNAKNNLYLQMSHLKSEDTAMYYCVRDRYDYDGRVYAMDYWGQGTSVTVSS VL: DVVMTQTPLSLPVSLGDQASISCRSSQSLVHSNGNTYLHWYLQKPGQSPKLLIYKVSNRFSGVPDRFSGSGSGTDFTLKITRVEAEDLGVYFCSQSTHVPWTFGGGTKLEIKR
**Result** 0.784

**Query** Dear colleague, I am looking for the recorded raw competing-Ab binding signal of the following binder: R3-P3-C11 (antibody, human IgG1, kappa, V domains shown, human IgG1 kappa from the phage campaign) VH: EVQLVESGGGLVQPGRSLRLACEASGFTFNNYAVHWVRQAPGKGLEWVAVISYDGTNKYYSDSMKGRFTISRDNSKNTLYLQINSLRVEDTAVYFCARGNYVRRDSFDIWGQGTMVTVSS VL: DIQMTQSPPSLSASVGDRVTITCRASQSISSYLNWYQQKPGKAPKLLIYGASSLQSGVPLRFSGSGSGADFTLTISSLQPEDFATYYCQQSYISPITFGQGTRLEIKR
**Result** 0.491

**Query** Dear colleague, I am looking for the recorded raw competing-Ab binding signal of the following binder: 19838-6-N03-A (antibody, IgG1, V domains shown) VH: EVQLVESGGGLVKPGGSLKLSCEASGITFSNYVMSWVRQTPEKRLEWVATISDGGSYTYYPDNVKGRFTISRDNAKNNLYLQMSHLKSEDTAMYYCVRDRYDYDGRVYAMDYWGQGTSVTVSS VL: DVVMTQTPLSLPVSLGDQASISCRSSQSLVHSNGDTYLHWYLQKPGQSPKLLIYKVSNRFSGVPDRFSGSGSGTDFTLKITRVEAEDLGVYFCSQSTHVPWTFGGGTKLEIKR
**Result** 0.332
